Target: equine serum butyrylcholinesterase (BChE) (Equus caballus)
Construct: equine serum butyrylcholinesterase (BChE, EC 3.1.1.8); purchased Sigma-Aldrich (Saint Louis, MO, USA); host or cells: equine serum
Sequence (P81908 whole entry): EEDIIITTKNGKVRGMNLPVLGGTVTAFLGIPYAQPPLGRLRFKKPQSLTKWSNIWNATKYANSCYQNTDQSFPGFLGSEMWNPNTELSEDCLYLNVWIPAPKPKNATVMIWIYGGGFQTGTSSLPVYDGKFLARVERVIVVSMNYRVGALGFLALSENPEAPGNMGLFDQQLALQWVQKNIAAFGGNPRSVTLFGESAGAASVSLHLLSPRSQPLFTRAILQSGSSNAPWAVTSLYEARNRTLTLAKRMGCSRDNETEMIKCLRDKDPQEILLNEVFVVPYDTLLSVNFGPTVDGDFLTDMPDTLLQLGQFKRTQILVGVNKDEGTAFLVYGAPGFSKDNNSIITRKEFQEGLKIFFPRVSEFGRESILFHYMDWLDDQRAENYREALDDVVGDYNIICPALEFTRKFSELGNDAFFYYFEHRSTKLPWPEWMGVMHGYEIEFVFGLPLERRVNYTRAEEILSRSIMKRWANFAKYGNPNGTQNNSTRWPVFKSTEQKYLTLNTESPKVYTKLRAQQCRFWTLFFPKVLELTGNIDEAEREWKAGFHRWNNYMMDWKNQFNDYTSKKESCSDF
Experiment: Inhibition of BChE (Ellman's colorimetric assay)
Type: biochemical
Conditions: ± SEM, n = 3, 10 min incubation 25 °C
Catalogue of inhibition at 20 µM readings, one per entry.
assay metric: inhibition at 20 µM (%)

Cl.Nc1c(C(F)(F)C(F)(F)F)nn(-c2ccccc2)c1O.O [4b]; 12.8
Cl.Nc1c(C(F)(F)C(F)(F)F)n[nH]c1O.O [4g]; 8.9
Cc1n[nH]c(O)c1N.Cl [4j]; 13.9
Cl.Nc1c(C(F)(F)F)n[nH]c1O [4e]; 5.6
CC1=NN(c2ccccc2)C(=O)/C1=N\O [1d]; 6.6
Cl.Nc1c(C(F)(F)C(F)(F)C(F)(F)F)n[nH]c1O.O [4h]; 3.4
Cc1nn(-c2ccccc2)c(O)c1N.Cl.O [4d]; 5.1
O=C1/C(=N\O)C(C(F)(F)C(F)(F)C(F)(F)C(F)(F)F)=NN1c1ccccc1 [1c]; 5.3
CC1=NNC(=O)/C1=N\O [1j]; 3.8
Nc1c(C(F)(F)C(F)(F)C(F)(F)C(F)(F)F)nn(-c2ccccc2)c1O [4c]; 10.3
O=C1/C(=N\O)C(C(F)(F)C(F)(F)F)=NN1c1ccccc1 [1b]; 16.1
Cl.Nc1c(C(F)(F)F)nn(-c2ccccc2)c1O [4a]; 6.9
O=C1NN=C(C(F)(F)C(F)F)/C1=N/O [1f]; 4.7
